Could you please report measured IC50 for the items listed next?
target: recombinant human cIAP2-BIR3 protein (Homo sapiens, UniProt Q13489); construct: recombinant human cIAP2-BIR3 protein; purchased Reaction biology APT-11-372; assay: Recombinant human c-IAP2-BIR3 biochemical assay (HTRF, peptide displacement); conditions: 3.7 nM cIAP2-BIR3, 3.7 nM AbuRPF-K(5-Fam)-NH2 peptide, read-out: Protein binding IC50 (nM) c-IAP2
Sequence (Q13489 238-349 limits assumed): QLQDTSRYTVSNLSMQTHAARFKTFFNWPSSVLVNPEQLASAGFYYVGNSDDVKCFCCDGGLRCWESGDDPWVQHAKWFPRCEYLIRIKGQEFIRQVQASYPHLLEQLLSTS
Structures can show the parent of a compound that is named as a salt.

Query: # lookup: IC50 of C[C@@H]1CN(CC(=O)N2c3cc(Cc4ccc(F)cc4)c(C(N)=O)nc3OC[C@@H]2C)[C@@H](CN2CCOC[C@H]2C)CN1
Reply: 0.71 nM

Query: # lookup: IC50 of C[C@@H]1CN(CC(=O)N2CCOc3nc(C#N)c(Cc4ccc(F)cc4)cc32)[C@@H](CN2CCOC[C@H]2C)CN1 [Compound 1, formate]
Reply: 0.9 nM

Query: # lookup: IC50 of C[C@@H]1CN(CC(=O)N2c3cc(Cc4ccc(F)cc4)c(C(N)=O)nc3OC[C@@H]2C)[C@@H](CN2CCOCC23CC3)CN1
Reply: 0.63 nM

Query: # lookup: IC50 of C[C@@H]1CN(CC(=O)N2c3cc(Cc4ccc(F)cc4)c(CO)nc3OC[C@@H]2C)[C@@H](CN2[C@H](C)COC[C@H]2C)CN1
Reply: 0.24 nM

Query: # lookup: IC50 of CCOC[C@H]1COc2ncc(Cc3ccc(F)cc3)cc2N1C(=O)CN1C[C@@H](C)NC[C@@H]1CN1[C@H](C)COC[C@H]1C
Reply: 0.8 nM

Query: # lookup: IC50 of CC(C)OC[C@H]1COc2ncc(Cc3ccc(F)cc3)cc2N1C(=O)CN1C[C@@H](C)NC[C@@H]1CN1[C@H](C)COC[C@H]1C
Reply: 0.27 nM

Query: # lookup: IC50 of COC[C@H]1COc2ncc(Cc3ccc(F)cc3)cc2N1C(=O)CN1C[C@@H](C)NC[C@@H]1CN1[C@H](C)COC[C@H]1C
Reply: 0.32 nM

Query: # lookup: IC50 of C[C@@H]1CN(CC(=O)N2c3cc(Cc4ccc(F)cc4)cnc3OC[C@@H]2Cc2ccccc2)[C@@H](CN2CCOC[C@H]2C)CN1
Reply: 0.32 nM

Query: # lookup: IC50 of C[C@@H]1CN(CC(=O)N2CCOc3nc(C4CC4)c(Cc4ccc(F)cc4)cc32)[C@@H](CN2CCOC[C@H]2C)CN1
Reply: 3 nM

Query: # lookup: IC50 of C[C@@H]1CN(CC(=O)N2c3cc(Cc4ccc(F)cc4)c(CO)nc3OC[C@@H]2C)[C@@H](CN2CCOC[C@H]2C)CN1
Reply: 0.5 nM

Query: # lookup: IC50 of C[C@@H]1CN(CC(=O)N2c3cc(Cc4ccc(F)cc4)c(C(=O)N4CCCCC4)nc3OC[C@@H]2C)[C@@H](CN2[C@H](C)COC[C@H]2C)CN1
Reply: 0.49 nM

Query: # lookup: IC50 of C[C@@H]1CN(CC(=O)N2c3cc(Cc4ccc(F)cc4)c(C(=O)NC4CCOCC4)nc3OC[C@@H]2C)[C@@H](CN2[C@H](C)COC[C@H]2C)CN1
Reply: 0.28 nM

----------
target: recombinant human cIAP1-BIR3 protein (Homo sapiens); construct: recombinant human cIAP1-BIR3 protein; purchased Reaction biology APT-11-370; experiment: Recombinant human c-IAP1-BIR3 biochemical assay (HTRF, peptide displacement); settings: 1.2 nM cIAP1-BIR3, 3 nM AbuRPF-K(5-Fam)-NH2 peptide, read-out: Protein binding IC50 (nM) c-IAP1
Sequence (Q13490 253-363 limits assumed): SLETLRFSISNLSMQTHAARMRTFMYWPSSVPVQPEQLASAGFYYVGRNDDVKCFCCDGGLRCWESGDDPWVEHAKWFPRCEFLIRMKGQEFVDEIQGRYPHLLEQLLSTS
recorded.endpoint: IC50 (nM)
Answer in nM, number only, no unit symbol.

Query: # lookup: IC50 of C[C@@H]1CN(CC(=O)N2c3cc(Cc4ccc(F)cc4)c(CO)nc3OC[C@@H]2C)[C@@H](CN2CCOC[C@@H]2C(F)(F)F)CN1 [Compound 91B]
Reply: 47

Query: # lookup: IC50 of C[C@@H]1CN(CC(=O)N2CC(C)(C)Oc3nc(Br)c(Cc4ccc(F)cc4)cc32)[C@@H](CN2CCOC[C@H]2C)CN1
Reply: 16

Query: # lookup: IC50 of C[C@@H]1CN(CC(=O)N2c3cc(Cc4ccc(F)cc4)c(CO)nc3OC[C@@H]2C)[C@@H](CN2C3CCC2COC3)CN1
Reply: 0.89

Query: # lookup: IC50 of COC[C@H]1COc2ncc(Cc3ccc(F)cc3)cc2N1C(=O)CN1C[C@@H](C)NC[C@@H]1CN1[C@H](C)COC[C@H]1C
Reply: 0.25

Taken from patent US12583866B2.
